MIC for assorted molecules
Test system: P. aeruginosa 378057
Experiment: MIC, broth microdilution (CLSI), P. aeruginosa 378057
Assay type: cell-based
Details: Pseudomonas aeruginosa, 5×10^5 cfu/mL, cation-adjusted Iso-Sensitest broth containing human Apo-transferrin, read-out: Minimum Inhibitory Concentration (MIC)
Protocol: Compound (I) of the present invention was evaluated for in vitro antimicrobial activity thereof. Measurement of Minimum Inhibitory Concentration (MIC: μg/mL) was conducted according to CLSI (Clinical and Laboratory Standards Institute) method, and the amount of bacteria for inoculation was 5×10^5 cfu/mL, and cation-adjusted Iso-Sensitest broth containing human Apo-transferrin was used as a test medium, and the experiment was conducted using broth microdilution method.

STRUCTURE AS SMILES: CC(C)(O/N=C(\C(=O)N[C@@H]1C(=O)N2C(c3nnn[nH]3)=C(C[N+]3(CCN4C(=O)c5ccc(O)c(O)c5C4=O)CCCC3)CS[C@H]12)c1nc(N)sc1Cl)C(=O)[O-]
MIC: ≤ 0.031 µg/mL
--
STRUCTURE AS SMILES: CC(C)(O/N=C(\C(=O)N[C@@H]1C(=O)N2C(c3nnn[n-]3)=C(C[N+]3(CCN4C(=O)c5ccc(O)c(O)c5C4=O)CCCCC3)CS[C@H]12)c1csc(N)n1)C(=O)[O-].[Na+]
MIC: 0.063 µg/mL
--
STRUCTURE AS SMILES: CC(C)(O/N=C(\C(=O)N[C@@H]1C(=O)N2C(c3nnn[nH]3)=C(C[N+]3(CCN4C(=O)c5ccc(O)c(O)c5C4=O)CCCC3)CS[C@H]12)c1csc(N)n1)C(=O)[O-]
MIC: ≤ 0.031 µg/mL
--
STRUCTURE AS SMILES: CC[N+](CC)(CCN1C(=O)c2ccc(O)c(O)c2C1=O)CC1=C(C(=O)[O-])N2C(=O)[C@@H](NC(=O)/C(=N\O[C@@H](CC(=O)[O-])C(=O)[O-])c3csc(N)n3)[C@H]2SC1.[Na+].[Na+]
MIC: ≤ 0.031 µg/mL
--
STRUCTURE AS SMILES: CC(C)(O/N=C(\C(=O)N[C@@H]1C(=O)N2C(C(=O)O)=C(C[N+]3(CCN4C(=O)c5ccc(O)c(O)c5C4=O)CCCCC3)CS[C@H]12)c1csc(N)n1)C(=O)[O-]
MIC: ≤ 0.031 µg/mL
--
STRUCTURE AS SMILES: CC(C)(O/N=C(\C(=O)N[C@@H]1C(=O)N2C(C(=O)O)=C(C[N+]3(Cc4noc5cc(O)c(O)cc45)CCCC3)CS[C@H]12)c1csc(N)n1)C(=O)[O-]
MIC: 0.063 µg/mL
--
STRUCTURE AS SMILES: CC[N+](CC)(CCN1C(=O)c2ccc(O)c(O)c2C1=O)CC1=C(c2nn[nH]n2)N2C(=O)[C@@H](NC(=O)/C(=N\OC(C)(C)C(=O)O)c3csc(N)n3)[C@H]2SC1.[Na+]
MIC: ≤ 0.031 µg/mL

Values compiled from patent US20150344502A1.
